test system: TK-10 renal; test: NCI-60 one-dose screen, 48 h; settings: 10 µM unless noted
Compounds without any hit were thinned out: in the full panel of roughly 83,000, 20% have a hit. Active and inactive are the calls of the source. Rule for the calls: active = growth percent below 10; inactive = the rest.
Select the correct class. Options are true (1) = active, false (0) = inactive and nothing else.

Give the logged outcome of this assay for the following compound: `CC(C)(C)c1cc(O)c(O)c(C(C)(C)C)c1`
false (0)

Give the logged outcome of this assay for the following compound: CC(C)(C)c1ccc(C(O)CCCN2CCC(C(O)(c3ccccc3)c3ccccc3)CC2)cc1 (stereo unspecified)
true (1)

Give the logged outcome of this assay for the following compound: `C[C@]12CC[C@@H]3c4ccc(O)c([N+](=O)[O-])c4CC[C@H]3[C@@H]1CC[C@@H]2NS(=O)(=O)c1ccc(C(F)(F)F)cc1`
false (0)

Give the logged outcome of this assay for the following compound: `COc1cc(/C=C2\COc3ccc(O)cc3C2=O)cc(OC)c1`
false (0)

Give the logged outcome of this assay for the following compound: `OCc1nnn(-c2ccccc2)c1CO`
false (0)

Give the logged outcome of this assay for the following compound: COC1=CC(c2ccc[nH]2)=N/C1=C\c1[nH]c(C)c(C(=O)CCC(=O)Oc2ccc3c(c2)CCC2C3CC[C@]3(C)C(=O)CC[C@@H]23)c1C (stereo partly specified)
false (0)

Give the logged outcome of this assay for the following compound: `COc1ccc2c(c1)C(=O)/C(=C/c1cccc(OCC(=O)c3ccccc3)c1)CC2`
false (0)

Give the logged outcome of this assay for the following compound: `CN(CC(=O)Nc1nc2ccccc2[nH]1)S(=O)(=O)c1ccc(Cl)cc1`
false (0)

Give the logged outcome of this assay for the following compound: `CC(C)c1ccc(C(=O)Nc2sc3c(CN(C)C)c(O)ccc3c2C(N)=O)cc1`
false (0)

Give the logged outcome of this assay for the following compound: `COc1ccccc1[C@H]1c2[nH]c3ccccc3c2C[C@H]2C(=O)N(CCCCCCC(=O)NO)CC(=O)N12`
false (0)

Give the logged outcome of this assay for the following compound: `COc1cccc(-c2nnc(N)o2)c1`
false (0)

Give the logged outcome of this assay for the following compound: `Cc1c(C(N)=O)sc2ncn(Cc3ccccc3)c(=O)c12`
false (0)

Give the logged outcome of this assay for the following compound: `COc1ccc(C(=O)Nc2nc(-c3ccc(Cl)cc3)cs2)cc1`
false (0)

Give the logged outcome of this assay for the following compound: `COc1ccc(-c2cn(-c3ccccc3)c(-c3ccccc3)n2)cc1OC`
false (0)

Give the logged outcome of this assay for the following compound: `O=C1/C(=C/c2ccc([N+](=O)[O-])o2)Oc2ccc(Br)cc21`
true (1)

Give the logged outcome of this assay for the following compound: `CC(C)C/C(=N\NC(=O)c1ccncc1)c1cc(Cl)ccc1O`
false (0)

Give the logged outcome of this assay for the following compound: `N=c1ccn2c(n1)O[C@@H]1[C@@H](O)[C@H](CO)O[C@@H]12`
false (0)

Give the logged outcome of this assay for the following compound: `CSc1nnc(C2=CC(=O)c3ccccc3C2=O)n1-c1ccccc1`
false (0)

Give the logged outcome of this assay for the following compound: `N#Cc1c(N)[nH]c(S)c1C#N`
false (0)

Give the logged outcome of this assay for the following compound: `S=C(Nc1ccc(C2=NCCN2)cc1)Nc1ccc(C2=NCCN2)cc1`
false (0)

Give the logged outcome of this assay for the following compound: `N#CCNc1ccccc1N`
false (0)

Give the logged outcome of this assay for the following compound: `CCCCCCCC/C=C/CCCCCCCC1=NC(C)(C)CN1CCO`
false (0)

Give the logged outcome of this assay for the following compound: `CC(=O)NC1(C(=O)O)CCCC1`
false (0)

Give the logged outcome of this assay for the following compound: CCOC(=O)C1=NN(c2ccc(Cl)cc2)C2C3N(c4ccc(Cl)cc4)N=C(C(=O)OCC)N3c3ccccc3N12 (stereo unspecified)
false (0)

Give the logged outcome of this assay for the following compound: CC(CCC(=O)O)(NC(=O)c1ccc([N+](=O)[O-])cc1)C(=O)O (stereo unspecified)
false (0)

Give the logged outcome of this assay for the following compound: `Clc1cccc(Cc2cn3cc(-c4ccccc4)nc3s2)c1`
false (0)

Give the logged outcome of this assay for the following compound: `Cn1c(=O)c2c(nc(Br)n2CCC(=O)Nc2ccc(F)cc2)n(C)c1=O`
false (0)

Give the logged outcome of this assay for the following compound: `COC(=O)[C@]1(C(C)C)N[C@H](c2cn(-c3ccccc3)nc2-c2ccccc2)[C@@H]2C(=O)N(c3ccc(Cl)cc3)C(=O)[C@@H]21`
false (0)

Give the logged outcome of this assay for the following compound: `O=C(Nc1ccc(Cl)cc1)Nc1ccc(Nc2nncc3ccccc23)cc1`
false (0)

Give the logged outcome of this assay for the following compound: `O=[N+]([O-])c1cnc(Sc2ccncn2)c([N+](=O)[O-])c1`
true (1)

Give the logged outcome of this assay for the following compound: `O=C(Nc1cccc([N+](=O)[O-])c1)c1cccc(C(=O)Nc2cccc([N+](=O)[O-])c2)c1`
false (0)

Give the logged outcome of this assay for the following compound: `Nc1cc(Cl)c(S(N)(=O)=O)cc1S(N)(=O)=O`
false (0)

Give the logged outcome of this assay for the following compound: `CCC(=O)Nc1ccccc1C#C/C=C\C#Cc1ccccc1C(F)(F)F`
false (0)

Give the logged outcome of this assay for the following compound: COc1ccc(C2CC(c3ccc(OC)c(OC)c3)=NN2C(=O)c2cc(OC)c(OC)c(OC)c2)c(OC)c1 (stereo unspecified)
false (0)

Give the logged outcome of this assay for the following compound: O=C(C(=O)N1CCOCC1)c1ccc(OC2OC(CO)C(O)C(O)C2O)cc1 (stereo unspecified)
false (0)

Give the logged outcome of this assay for the following compound: COc1cc([C@@H]2c3cc4c(cc3C(O[C@@H]3O[C@@H]5CO[C@@H](c6cccs6)OC5[C@H](O)[C@H]3O)C3COC(=O)[C@@H]32)OCO4)cc(OC)c1O (stereo partly specified)
true (1)

Give the logged outcome of this assay for the following compound: `c1ccc(Nc2nnc(-c3cc(-c4cccnc4)n(-c4ccccc4)n3)s2)cc1`
false (0)

Give the logged outcome of this assay for the following compound: `COc1ccc(/C(=C2\O[C@@H]([C@H](O)CO)[C@H]3OC(C)(C)O[C@@H]23)c2cc(OC)c(OC)c(OC)c2)cc1O`
false (0)

Give the logged outcome of this assay for the following compound: `COc1ccc2c(c1)[nH]c(=O)c1c3cc(OC)c(OC)cc3cn21`
false (0)

Give the logged outcome of this assay for the following compound: `O=c1[nH]c(Cl)nc2c1cnn2-c1ccccc1`
false (0)

Give the logged outcome of this assay for the following compound: `Cc1nc2c(O)cccc2cc1CO`
false (0)

====

tested on: IGROV1 ovarian; assay: NCI-60 one-dose screen, 48 h; details: 10 µM unless noted
The panel holds about 83,000 compounds, 20% with a hit somewhere; the sample as a whole holds those more often. Active and inactive are the calls of the source. The calls were made as follows: active = growth percent below 10; inactive = the rest.
Select the correct class. Options are active, inactive and nothing else.

Give the logged outcome of this assay for the following molecule: CC(C)COCC(CN(Cc1ccccc1)c1ccccc1)N1CCCC1 (stereo not given)
inactive

Give the logged outcome of this assay for the following molecule: `O=C1/C(=C/c2ccc([N+](=O)[O-])s2)Oc2ccc(Br)cc21`
active

Give the logged outcome of this assay for the following molecule: `ClC1=C(Cl)C(=C2C(Cl)=C(Cl)C(Cl)=C2Cl)C(Cl)=C1Cl`
inactive

Give the logged outcome of this assay for the following molecule: `CCCc1cc(=O)n2c(C(=O)Nc3ccccc3OC)c(C(=O)Nc3ccc(F)cc3)sc2n1`
active

Give the logged outcome of this assay for the following molecule: C=CC1=C(C(=O)O)N2C(=O)[C@@H](NC(=O)/C(=N\O)c3csc(N)n3)[C@H]2SC1 (stereo in doubt)
inactive

Give the logged outcome of this assay for the following molecule: `Cc1c(N(C)CS(=O)(=O)O)c(=O)n(-c2ccccc2)n1C`
inactive

Give the logged outcome of this assay for the following molecule: `Cc1cc(Cl)ccc1Nc1nc(C(F)(F)F)ccc1C(=O)NCC(=O)N/N=C/c1c(Cl)cccc1Cl`
inactive

Give the logged outcome of this assay for the following molecule: `c1ccc(-c2nn[nH]n2)c(-c2ccc(CN3CCN(c4nsc5ccccc45)CC3)cc2)c1`
inactive

Give the logged outcome of this assay for the following molecule: CSc1ccc2c(c1)N(CCC1CCCCN1C)c1ccccc1S2 (stereo not given)
inactive

Give the logged outcome of this assay for the following molecule: COc1ccc(C2CC(c3ccc(OC)c(OC)c3)=NN2C(=O)c2cc(OC)c(OC)c(OC)c2)c(OC)c1 (stereo not given)
inactive

====

system: RPMI-8226 leukemia; assay: NCI-60 one-dose screen, 48 h; conditions: 10 µM unless noted
This is part of a sample that, as a whole, favours compounds with a hit. Of some 83,000 tested, about 20% had one in any assay. Active and inactive are the calls of the source. Rule for the calls: active = growth percent below 10; inactive = the rest.
Select the correct class. Options are yes = active, no = inactive and nothing else.

Give the logged outcome of this assay for the following molecule: `CN(C)c1ccc2[nH]c3c(C(N)=O)cc(=O)c(=O)c=3oc2c1`
yes

Give the logged outcome of this assay for the following molecule: `COc1ccc2c(c1)[nH]c(=O)c1c3cc(OC)c(OC)cc3cn21`
yes

Give the logged outcome of this assay for the following molecule: COc1ccc(C2=NNC(c3cc(Cc4ccc(O)c(C5CC(c6ccc(OC)cc6)=NN5)c4)ccc3O)C2)cc1 (stereo not given)
no

Give the logged outcome of this assay for the following molecule: `O=C(Nc1cccc([N+](=O)[O-])c1)c1cccc(C(=O)Nc2cccc([N+](=O)[O-])c2)c1`
no

Give the logged outcome of this assay for the following molecule: `COC(=O)CCC1=C(C)/C(=C/c2[nH]c(-c3ccc[nH]3)cc2OC)N=C1C`
yes

Give the logged outcome of this assay for the following molecule: `Cc1cc(C)n(C(=O)c2nn(-c3ccc(Cl)cc3)cc2O)n1`
yes

Give the logged outcome of this assay for the following molecule: COc1cc2c(c(OC)c1OC)-c1ccc(NN(C(=O)c3ccccc3)C(=O)c3ccccc3)c(=O)cc1[C@@H](NC(C)=O)CC2 (tested in a mixture with another compound)
no

Give the logged outcome of this assay for the following molecule: `O=C(c1ccccc1)c1ccccc1Cl`
no

Give the logged outcome of this assay for the following molecule: `O=c1[nH]c(Cl)nc2c1cnn2-c1ccccc1`
no

Give the logged outcome of this assay for the following molecule: `COc1ccc(Cn2cc3c(c2-c2ccccc2)CCc2cncnc2-3)cc1`
no
